# Measurement target: Atmc9 (Arabidopsis thaliana, UniProt Q9FYE1)
# Construct: it indeed consists of amino acids 184 to 325 (calculated mass 15427 Da); made in house; host or cells: E. coli BL21(DE3), pDEST17, Ni-NTA purified
# Sequence (Q9FYE1 1-183 limits assumed): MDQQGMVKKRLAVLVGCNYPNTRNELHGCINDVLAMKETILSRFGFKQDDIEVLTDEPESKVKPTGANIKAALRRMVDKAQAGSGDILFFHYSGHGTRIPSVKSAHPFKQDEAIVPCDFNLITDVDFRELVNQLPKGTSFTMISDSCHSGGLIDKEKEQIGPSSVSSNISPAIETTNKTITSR
# Sequence (Q9FYE1 184-325 limits assumed): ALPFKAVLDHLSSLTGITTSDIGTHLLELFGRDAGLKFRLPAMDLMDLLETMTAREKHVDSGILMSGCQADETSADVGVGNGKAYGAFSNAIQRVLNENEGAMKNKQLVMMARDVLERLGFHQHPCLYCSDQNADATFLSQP
# Assay type: biochemical
# Measurement parameters: pH 5.3
Starred links: 1 amine or outer side, 2 acyl side, 3 side chain; linkers in the order of their positions; H or OH if unused. Residues, ends and D or L forms follow the SMILES beside them. CO = O=C([*:1])[*:2]
Endpoint name: Activity (%)
Give just the number in %; leave the unit off.

Ask: So what's the measured Activity (%) for this one? CC(C)[C@H](NC(=O)[C@H](CCCNC(=N)N)NC(=O)N[C@@H](Cc1ccccc1)C(=O)O)C(=O)N[C@H](C=O)CCCNC(=N)N [Antipain] ({Phe-CO}-Arg-Val-Arg-aldehyde)
Result: 13

Ask: So what's the measured Activity (%) for this one? CC(=O)N[C@@H](CC(C)C)C(=O)N[C@@H](CC(C)C)C(=O)N[C@H](C=O)CCCNC(=N)N [Leupeptin]
Result: 1

Ask: So what's the measured Activity (%) for this one? OC[C@H]1O[C@@](CO)(O[C@H]2O[C@H](CO)[C@@H](O)[C@H](O)[C@H]2O)[C@@H](O)[C@@H]1O [Sucrose]
Result: 121
